List of IC50 (µg/mL), pseudovirus neutralization values.
- Experimental System: HIV-1 APV-17 Env (pseudovirus) (HIV-1 isolate APV-17)
- Test Description: cell-based or functional assay

>  <Binder>
1460_G14 (PGG14) (antibody, human IgG1, kappa, V domains shown) VH: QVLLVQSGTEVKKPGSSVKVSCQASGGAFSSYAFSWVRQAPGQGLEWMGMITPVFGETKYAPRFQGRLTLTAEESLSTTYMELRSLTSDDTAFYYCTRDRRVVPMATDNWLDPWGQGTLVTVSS VL: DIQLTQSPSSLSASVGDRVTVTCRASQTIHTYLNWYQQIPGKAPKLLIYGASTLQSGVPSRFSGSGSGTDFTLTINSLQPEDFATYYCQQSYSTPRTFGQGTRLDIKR

>  <IC50 (µg/mL), pseudovirus neutralization>
> 50 µg/mL

$$$$
>  <Binder>
1495_C14 (PGC14) (antibody, human IgG1, lambda, V domains shown) VH: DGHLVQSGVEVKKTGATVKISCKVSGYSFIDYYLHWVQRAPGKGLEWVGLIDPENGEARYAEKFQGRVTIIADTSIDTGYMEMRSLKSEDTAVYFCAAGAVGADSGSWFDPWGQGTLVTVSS VL: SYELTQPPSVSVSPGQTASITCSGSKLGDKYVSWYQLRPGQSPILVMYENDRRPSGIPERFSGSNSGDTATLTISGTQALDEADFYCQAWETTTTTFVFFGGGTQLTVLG

>  <IC50 (µg/mL), pseudovirus neutralization>
> 50 µg/mL

$$$$
>  <Binder>
1443_C16 (PG16) (TCN-116) (antibody, V domains shown) VH: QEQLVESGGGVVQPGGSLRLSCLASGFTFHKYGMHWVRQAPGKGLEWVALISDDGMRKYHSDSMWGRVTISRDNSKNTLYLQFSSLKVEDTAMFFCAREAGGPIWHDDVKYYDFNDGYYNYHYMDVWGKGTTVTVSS VL: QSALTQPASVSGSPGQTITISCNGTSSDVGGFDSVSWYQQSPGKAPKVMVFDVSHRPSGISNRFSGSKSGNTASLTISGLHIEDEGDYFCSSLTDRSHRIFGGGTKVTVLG

>  <IC50 (µg/mL), pseudovirus neutralization>
> 50 µg/mL

$$$$
>  <Binder>
1456_P20 (PG20) (antibody, human IgG1, kappa, V domains shown) VH: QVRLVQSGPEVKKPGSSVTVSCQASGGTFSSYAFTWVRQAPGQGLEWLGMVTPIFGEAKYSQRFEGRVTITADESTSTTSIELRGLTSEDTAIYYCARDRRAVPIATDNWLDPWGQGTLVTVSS VL: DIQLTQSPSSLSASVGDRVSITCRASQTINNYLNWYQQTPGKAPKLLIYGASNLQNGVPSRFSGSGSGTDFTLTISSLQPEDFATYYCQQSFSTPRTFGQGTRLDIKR

>  <IC50 (µg/mL), pseudovirus neutralization>
> 50 µg/mL

$$$$

Read the next record carefully.
So for 1496_C09 (PG9) (TCN-109) (antibody, V domains shown) VH: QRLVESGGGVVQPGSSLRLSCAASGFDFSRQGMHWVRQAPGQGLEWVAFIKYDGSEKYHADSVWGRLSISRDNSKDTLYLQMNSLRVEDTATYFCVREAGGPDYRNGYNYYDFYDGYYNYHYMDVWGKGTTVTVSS VL: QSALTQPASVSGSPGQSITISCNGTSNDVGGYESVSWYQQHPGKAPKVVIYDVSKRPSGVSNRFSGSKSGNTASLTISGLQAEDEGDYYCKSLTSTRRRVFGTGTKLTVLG , the logged IC50 (µg/mL), pseudovirus neutralization turned out to be 26.4 µg/mL
